Kindly supply the reported IC50 values for the records listed here.
assay-system: KRAS_WT and SOS1 (Homo sapiens, UniProt P01116)
Construct: purchased
Sequence (P01116 1-188 isoform P01116-2): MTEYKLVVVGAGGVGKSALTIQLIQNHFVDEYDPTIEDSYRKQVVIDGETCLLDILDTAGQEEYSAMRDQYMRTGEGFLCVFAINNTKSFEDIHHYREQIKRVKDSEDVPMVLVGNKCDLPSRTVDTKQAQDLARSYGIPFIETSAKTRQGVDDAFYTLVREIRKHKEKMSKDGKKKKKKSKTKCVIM
experiment-description: Inhibition of KRAS_WT/SOS1 binding (Cisbio binding kit, 665/615 ratio), Effect Embodiment C
details: read-out: GTP-KRAS-WT:SOS1 IC50
Counter-ions that a name gives are not always drawn.
// note: answer is a bare numeric in nM

Exercise: I have this compound here, CNCCCOc1nc(N2CC3CCC(C2)N3)c2cc(Cl)c(-c3cc(O)cc4ccccc34)c(F)c2n1 (single isomer, unassigned) [Compound 93, dihydrochloride] , and I need its recorded IC50.
Solution: 2030

Exercise: I have this compound here, C[C@H]1COC[C@H](C)N1CCCOc1nc(N2CC3CCC(C2)N3)c2cc(Cl)c(-c3cc(O)cc4ccccc34)c(F)c2n1 (single isomer, unassigned) , and I need its recorded IC50.
Solution: 3930

Exercise: I have this compound here, Oc1cc(-c2c(Cl)cc3c(N4CC5CCC(C4)N5)nc(OCCCN4C5CCCC4COC5)nc3c2F)c2ccccc2c1 (single isomer, unassigned) , and I need its recorded IC50.
Solution: 1190

Exercise: I have this compound here, Oc1cc(-c2c(Cl)cc3c(N4C[C@H]5CC[C@@H](C4)N5)nc(OCCCN4C[C@@H]5C[C@H]4CO5)nc3c2F)c2ccccc2c1 (single isomer, unassigned) [Compound 165, dihydrochloride] , and I need its recorded IC50.
Solution: 1880

Exercise: I have this compound here, CCCCN(C)CCCOc1nc(N2CC3CCC(C2)N3)c2cc(Cl)c(-c3cc(O)cc4ccccc34)c(F)c2n1 (single isomer, unassigned) [Compound 113, hydrochloride] , and I need its recorded IC50.
Solution: 4000

----------
assay-system: KRAS-G12D and SOS1 (Homo sapiens, UniProt P01116, G12D)
experiment-description: Inhibition of KRAS-G12D/SOS1 binding (Cisbio binding kit, 665/615 ratio), Effect Embodiment A
details: read-out: GTP-KRAS-G12D:SOS1 IC50
Counter-ions that a name gives are not always drawn.
# note: exactly 100 nM is not below, so it is class 0; use class 1 for IC50 strictly under it

Exercise: Is 100 nM strictly greater than the compound's reported IC50? compound: CN(C)C1CN(c2nc(N3CC4CCC(C3)N4C(=N)N)c3cc(Cl)c(-c4cc(O)cc5ccccc45)c(F)c3n2)C1 (single isomer, unassigned)
Solution: class 0

Exercise: Is 100 nM strictly greater than the compound's reported IC50? compound: CN1CC(F)(F)C[C@H]1COc1nc(N2CC3CCC(C2)N3)c2cnc(-c3cc(O)cc4ccccc34)c(F)c2n1
Solution: class 0

Exercise: Is 100 nM strictly greater than the compound's reported IC50? compound: Oc1cc(-c2c(Cl)cc3c(N4CC5CCC(C4)N5)nc(OCCCN4CCC5(CCOC5)CC4)nc3c2F)c2ccccc2c1 (single isomer, unassigned)
Solution: class 1

Exercise: Is 100 nM strictly greater than the compound's reported IC50? compound: CN1CC[C@H]1COc1nc(N2CC3CCC(C2)N3)c2cc(Cl)c(-c3cc(O)cc4ccccc34)c(F)c2n1 (single isomer, unassigned)
Solution: class 1

Exercise: Is 100 nM strictly greater than the compound's reported IC50? compound: CC(C)CN(C)CCCOc1nc(N2C[C@H]3CC[C@@H](C2)N3)c2cc(Cl)c(-c3cc(O)cc4ccccc34)c(F)c2n1 (single isomer, unassigned) [Compound 115, dihydrochloride]
Solution: class 1

Exercise: Is 100 nM strictly greater than the compound's reported IC50? compound: Oc1cc(-c2c(Cl)cc3c(N4CC5CCC(C4)N5)nc(OC[C@@]45CCCN4C[C@H](F)C5)nc3c2F)c2c(F)c(F)ccc2c1 (single isomer, unassigned) [Compound 214a]
Solution: class 1

Exercise: Is 100 nM strictly greater than the compound's reported IC50? compound: Oc1cc(-c2c(Cl)cc3c(N4CC5CCC(C4)N5)nc(OCCCN4CCOCC4)nc3c2F)c2ccccc2c1 (single isomer, unassigned) [Compound 54b, dihydrochloride]
Solution: class 0

Exercise: Is 100 nM strictly greater than the compound's reported IC50? compound: CN1CCC[C@H]1COc1nc(N2CC3CCC(C2)N3C(=O)CN)c2cc(Cl)c(-c3cc(O)cc4ccccc34)c(F)c2n1 (single isomer, unassigned) [Compound 156, dihydrochloride]
Solution: class 0

Exercise: Is 100 nM strictly greater than the compound's reported IC50? compound: CCc1c(F)ccc2cc(O)cc(-c3c(F)cc4c(N5CC6CCC(C5)N6)nc(OCCCN5C6CCC5COC6)nc4c3F)c12 (single isomer, unassigned) [Compound 215b]
Solution: class 0

Exercise: Is 100 nM strictly greater than the compound's reported IC50? compound: Oc1cc(-c2c(Cl)cc3c(N4CC5CCC(C4)N5)nc(OCCCN4CCC4)nc3c2F)c2ccccc2c1 (single isomer, unassigned) [Compound 59a]
Solution: class 1

Exercise: Is 100 nM strictly greater than the compound's reported IC50? compound: CCc1c(F)ccc2cc(O)cc(-c3c(F)cc4c(N5CC6CCC(C5)N6)nc(OC[C@H](C)CN5C6CCC5COC6)nc4c3F)c12 (single isomer, unassigned) [Compound 229a]
Solution: class 1

Exercise: Is 100 nM strictly greater than the compound's reported IC50? compound: CN(C)C1CN(c2nc(N3C[C@@H]4CC[C@H]3CN4)c3cc(Cl)c(-c4cc(O)cc5ccccc45)c(F)c3n2)C1 (single isomer, unassigned) [Compound 4a]
Solution: class 1

Exercise: Is 100 nM strictly greater than the compound's reported IC50? compound: CN(C)C1CN(c2nc(N3C[C@H]4CC[C@@H]3CN4)c3cc(Cl)c(-c4cc(O)cc5ccccc45)c(F)c3n2)C1 (single isomer, unassigned) [Compound 1b]
Solution: class 0

Exercise: Is 100 nM strictly greater than the compound's reported IC50? compound: CCN(CC)CCCOc1nc(N2CC3CCC(C2)N3)c2cc(Cl)c(-c3cc(O)cc4ccccc34)c(F)c2n1 (single isomer, unassigned) [Compound 53b]
Solution: class 0

Exercise: Is 100 nM strictly greater than the compound's reported IC50? compound: CN1CCC[C@H]1COc1nc(N2CC3(C)CCC(C)(C2)N3)c2cc(Cl)c(-c3cc(O)cc4ccccc34)c(F)c2n1 (single isomer, unassigned) [Compound 194a]
Solution: class 1

Exercise: Is 100 nM strictly greater than the compound's reported IC50? compound: CN(C)CCCOc1nc2c(c(N3CCNCC3)n1)CCN(c1cc(O)cc3ccccc13)C2
Solution: class 0

Exercise: Is 100 nM strictly greater than the compound's reported IC50? compound: C[C@@H](COc1nc(N2CC3CCC(C2)N3)c2cc(Cl)c(-c3cc(O)cc4ccc(F)c(F)c34)c(F)c2n1)CN1C2CCC1COC2 (single isomer, unassigned)
Solution: class 1

Exercise: Is 100 nM strictly greater than the compound's reported IC50? compound: Oc1cc(-c2c(Cl)cc3c(N4CC5CCC(C4)N5)nc(OCCN4CCOCC4)nc3c2F)c2ccccc2c1 (single isomer, unassigned) [Compound 121, dihydrochloride]
Solution: class 0

Exercise: Is 100 nM strictly greater than the compound's reported IC50? compound: CCCN(C)CC1(COc2nc(N3C[C@H]4CC[C@@H](C3)N4)c3cc(Cl)c(-c4cc(O)cc5ccccc45)c(F)c3n2)CC1 (single isomer, unassigned) [Compound 185, diformate]
Solution: class 0

Exercise: Is 100 nM strictly greater than the compound's reported IC50? compound: C[C@H]1CCCCN1CCOc1nc(N2CC3CCC(C2)N3)c2cc(Cl)c(-c3cc(O)cc4ccccc34)c(F)c2n1 (single isomer, unassigned)
Solution: class 1

Exercise: Is 100 nM strictly greater than the compound's reported IC50? compound: CN(C)CCCOc1nc(N2CC3CCC(C2)N3)c2cc(Cl)c(-c3cc(O)cc4ccccc34)c(F)c2n1 (single isomer, unassigned) [Compound 40b]
Solution: class 0

----------
assay-system: KRAS_G12D and cRAF (Homo sapiens, UniProt P01116, G12D)
Construct: purchased
Sequence (P01116 1-188 isoform P01116-2 G12D): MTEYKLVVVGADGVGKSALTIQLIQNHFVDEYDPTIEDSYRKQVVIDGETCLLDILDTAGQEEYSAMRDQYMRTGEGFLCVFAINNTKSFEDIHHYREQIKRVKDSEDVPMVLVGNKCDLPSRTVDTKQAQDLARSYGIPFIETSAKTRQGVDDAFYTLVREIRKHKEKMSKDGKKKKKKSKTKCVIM
experiment-description: Inhibition of KRAS_G12D/cRAF binding (Cisbio binding kit, 665/615 ratio), Effect Embodiment B
details: read-out: GTP-KRAS-G12D:CRAF IC50
Counter-ions that a name gives are not always drawn.
Kindly supply the reported pIC50 values for the records listed here.
Reminder that pIC50 is minus the log10 of a molar concentration.

Exercise: // map Oc1cc(-c2cc(F)c3c(N4CC5CCC(C4)N5)nc(OCCCN4C5CCC4COC5)nc3c2F)c2ccccc2c1 [Compound 253] to recorded pIC50 (system: KRAS_G12D and cRAF (Homo sapiens, UniProt P01116, G12D))
Solution: 6.31

Exercise: // map CCC(COc1nc(N2CC3CCC(C2)N3)c2cc(Cl)c(-c3cc(O)cc4ccccc34)c(F)c2n1)CN1C2CCC1COC2 (single isomer, unassigned) [Compound 201b] to recorded pIC50 (system: KRAS_G12D and cRAF (Homo sapiens, UniProt P01116, G12D))
Solution: 7.34

Exercise: // map CN1C[C@@H]2C[C@@H]2[C@H]1COc1nc(N2CC3CCC(C2)N3)c2cnc(-c3cc(O)cc4ccccc34)c(F)c2n1 [Compound 140, dihydrochloride] to recorded pIC50 (system: KRAS_G12D and cRAF (Homo sapiens, UniProt P01116, G12D))
Solution: 7.02
